- assayComment: Cytotoxicity MTS assay, HEK293
- Type: cell-based
- condition: 24 h exposure, in mM
endpoint: IC50 at 24 h

Challenge: Sample CCN(CC)Cc1cc(Nc2ccnc3cc(Cl)ccc23)ccc1O [AMQ, Amodiaquine, reference compound] — what was its IC50 at 24 h?
Response given: ≥ 1 mM

* * *

Can you tell me Ki for the items I'm about to list?
- testedOn: recombinant human AChE (Homo sapiens, UniProt P22303)
- Construct: gift of Dr Florian Nachon, Armed Forces Biomedical Research Institute, Brétigny-sur-Orge, France
- Sequence (P22303 32-614): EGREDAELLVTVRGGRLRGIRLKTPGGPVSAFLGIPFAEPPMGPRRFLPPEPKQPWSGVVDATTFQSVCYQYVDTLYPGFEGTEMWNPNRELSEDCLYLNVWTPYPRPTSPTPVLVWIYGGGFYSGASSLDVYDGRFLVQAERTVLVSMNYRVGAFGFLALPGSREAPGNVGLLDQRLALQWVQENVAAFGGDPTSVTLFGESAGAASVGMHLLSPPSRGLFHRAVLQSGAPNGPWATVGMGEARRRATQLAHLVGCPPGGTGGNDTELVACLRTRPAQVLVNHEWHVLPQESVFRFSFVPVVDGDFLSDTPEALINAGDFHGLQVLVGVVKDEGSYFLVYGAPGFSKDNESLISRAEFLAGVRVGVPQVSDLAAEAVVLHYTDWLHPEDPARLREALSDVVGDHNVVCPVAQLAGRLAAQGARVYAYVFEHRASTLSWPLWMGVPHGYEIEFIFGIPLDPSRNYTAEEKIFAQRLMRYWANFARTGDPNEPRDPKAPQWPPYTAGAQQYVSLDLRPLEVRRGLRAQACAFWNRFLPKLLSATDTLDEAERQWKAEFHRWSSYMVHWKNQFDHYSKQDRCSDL
- assayComment: Inhibition of human AChE (Ellman method, Hunter–Downs Ki)
- Type: biochemical
- condition: human AChE; Ki ± SE, at least three experiments; ATCh substrate
Could you give me the number in nM? Just the number is fine.

Challenge: What value of Ki has been recorded for this entry: CCN(CC)Cc1cc(Nc2ccnc3ccccc23)ccc1O [Compound 6]
Response given: 230

Challenge: Which Ki is reported for this molecule? CCN(CC)Cc1cc(Nc2cc(C(F)(F)F)nc3ccccc23)ccc1O [Compound 11]
Response given: 7600

Challenge: Query: Ki; subject: CCN(CC)Cc1cc(Nc2ccnc3cc(C#N)ccc23)ccc1O [Compound 3]
Response given: 78

Challenge: Entry CCN(CC)Cc1cc(Nc2ccnc3cc(C(F)(F)F)ccc23)ccc1O [Compound 2] : reported Ki = ?
Response given: 75

Challenge: Can you share its Ki? I mean this molecule: CCN(CC)Cc1cc(Nc2ccnc3ccc(F)cc23)ccc1O [Compound 7]
Response given: 51

Challenge: Requested field: Ki. Item: CCN(CC)Cc1cc(Nc2ccnc3cc(F)ccc23)ccc1O [Compound 1]
Response given: 170

* * *

- assayComment: Cytotoxicity MTS assay, HepG2
- Format: cell-based
- condition: human, HepG2 cells, 24 h exposure, IC50 ± SE
// returns False unless IC50 at 24 h is strictly below 500 µM, in which case True

Challenge: Is IC50 at 24 h strictly under 500 µM for the entry CCN(CC)Cc1cc(Nc2ccnc3cc(C#N)ccc23)ccc1O ?
Response given: True

Challenge: API: query returns whether the molecule falls strictly under 500 µM in IC50 at 24 h. Query: CCN(CC)Cc1cc(Nc2ccnc3cc(F)ccc23)ccc1O
Response given: True

Challenge: For this molecule, is IC50 at 24 h lower than 500 µM? CCN(CC)Cc1cc(Nc2ccnc3cc([N+](=O)[O-])ccc23)ccc1O
Response given: True

Challenge: I wonder whether CCN(CC)Cc1cc(Nc2ccnc3cccc(C(=O)O)c23)ccc1O has IC50 at 24 h below 500 µM. Can you tell?
Response given: False

Challenge: Would you kindly verify if IC50 at 24 h of CCN(CC)Cc1cc(Nc2ccnc3ccc(F)cc23)ccc1O is strictly less than 500 µM?
Response given: False

* * *

- assayComment: Cytotoxicity MTS assay, SH-SY5Y
- Type: cell-based
- condition: human, SH-SY5Y cells, 24 h exposure, IC50 ± SE
Decision: IC50 at 24 h beneath 90 µM gives yes; IC50 at 24 h meeting or exceeding 90 µM gives no.

Challenge: Please indicate whether the reported IC50 at 24 h of CCN(CC)Cc1cc(Nc2ccnc3cc(OC)ccc23)ccc1O is strictly below 90 µM.
Response given: yes

Challenge: Given CCN(CC)Cc1cc(Nc2ccnc3cccc(C(=O)O)c23)ccc1O , is recorded IC50 at 24 h strictly lower than 90 µM?
Response given: no

Challenge: In the record for CCN(CC)Cc1cc(Nc2ccnc3cc(C#N)ccc23)ccc1O , is IC50 at 24 h less than 90 µM?
Response given: no

* * *

Can you tell me pKi for the items I'm about to list?
- testedOn: purified human BChE (Homo sapiens, UniProt P06276)
- Construct: gift of Dr Florian Nachon, Armed Forces Biomedical Research Institute, Brétigny-sur-Orge, France
- Sequence (P06276 29-602): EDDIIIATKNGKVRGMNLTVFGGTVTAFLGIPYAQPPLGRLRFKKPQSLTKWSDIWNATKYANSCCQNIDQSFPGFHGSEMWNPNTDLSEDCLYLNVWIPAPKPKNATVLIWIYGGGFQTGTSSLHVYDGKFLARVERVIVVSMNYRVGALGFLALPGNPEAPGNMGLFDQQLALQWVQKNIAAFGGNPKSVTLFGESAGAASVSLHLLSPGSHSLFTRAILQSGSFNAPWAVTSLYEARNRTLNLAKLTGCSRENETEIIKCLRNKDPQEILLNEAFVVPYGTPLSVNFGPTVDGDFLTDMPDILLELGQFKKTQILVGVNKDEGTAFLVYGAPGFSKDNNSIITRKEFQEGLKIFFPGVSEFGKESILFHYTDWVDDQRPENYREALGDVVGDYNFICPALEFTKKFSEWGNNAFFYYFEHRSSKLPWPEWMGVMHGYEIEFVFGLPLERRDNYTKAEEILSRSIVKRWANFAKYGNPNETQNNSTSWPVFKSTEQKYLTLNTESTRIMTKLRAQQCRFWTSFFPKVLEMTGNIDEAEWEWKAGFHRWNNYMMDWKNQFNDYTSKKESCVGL
- assayComment: biochemical
- Assay type: biochemical
- condition: human BChE; Ki ± SE, at least three experiments; ATCh substrate; read-out: Ki BChE
The meaning of pKi here: minus log10 of the concentration in molar units.

Challenge: purified human BChE (Homo sapiens, UniProt P06276) / pKi / CCN(CC)Cc1cc(Nc2ccnc3ccc(F)cc23)ccc1O [Compound 7] : value?
Response given: 4.96

Challenge: Which pKi is reported with purified human BChE (Homo sapiens, UniProt P06276) for this entry: CCN(CC)Cc1cc(Nc2ccnc3ccc(C(F)(F)F)cc23)ccc1O [Compound 9] ?
Response given: 4.85

Challenge: Value wanted: pKi (purified human BChE (Homo sapiens, UniProt P06276)) of entry CCN(CC)Cc1cc(Nc2ccnc3cc(C#N)ccc23)ccc1O [Compound 3]
Response given: 4.72

Challenge: Any idea what pKi came out for CCN(CC)Cc1cc(Nc2ccnc3cc(OC)ccc23)ccc1O [Compound 5] on purified human BChE (Homo sapiens, UniProt P06276)?
Response given: 5.12

Challenge: # query: pKi | item CCN(CC)Cc1cc(Nc2ccnc3ccc(C#N)cc23)ccc1O [Compound 12] | system: purified human BChE (Homo sapiens, UniProt P06276)
Response given: 4.68

* * *

Field: IC50 at 24 h. Provide a value for each of the compounds that follow.
- assayComment: Cytotoxicity MTS assay, SH-SY5Y
- Format: cell-based
- condition: human, SH-SY5Y cells, 24 h exposure, in mM

Challenge: Endpoint output: IC50 at 24 h of CCN(CC)Cc1cc(Nc2ccnc3ccc(C(F)(F)F)cc23)ccc1O [Compound 9] . Value?
Response given: ≥ 1 mM

Challenge: Reported IC50 at 24 h, compound CCN(CC)Cc1cc(Nc2ccnc3cc(C(F)(F)F)ccc23)ccc1O [Compound 2] : ____
Response given: ≥ 1 mM

Challenge: Query (compound): CCN(CCO)Cc1cc(Nc2ccnc3cc(Cl)ccc23)ccc1O [Compound 14] ; field requested: IC50 at 24 h
Response given: ≥ 1 mM

* * *

- assayComment: Cytotoxicity MTS assay, HEK293
- Type: cell-based
- condition: human, HEK293 cells, 24 h exposure, IC50 ± SE
Can you tell me IC50 at 24 h for the items I'm about to list?
Provide only the numeric value, understood in µM.

Challenge: Item under review: CCN(CC)Cc1cc(Nc2cc(C(F)(F)F)nc3ccccc23)ccc1O . Reported IC50 at 24 h?
Response given: 25

Challenge: Quick one: IC50 at 24 h for CCN(CC)Cc1cc(Nc2ccnc3cc(F)ccc23)ccc1O ?
Response given: 90

Challenge: Fill in the blank: the reported IC50 at 24 h of CCN(CC)Cc1cc(Nc2ccnc3cc(OC)ccc23)ccc1O is ____.
Response given: 37

Challenge: Endpoint output: IC50 at 24 h of CCN(CC)Cc1cc(Nc2ccnc3c(F)cccc23)ccc1O . Value?
Response given: 134

Challenge: Given CCN(CC)Cc1cc(Nc2ccnc3c(C(F)(F)F)cccc23)ccc1O , state its recorded IC50 at 24 h.
Response given: 87

Challenge: Request the reported IC50 at 24 h associated with CCN(CC)Cc1cc(Nc2ccnc3cc(C#N)ccc23)ccc1O
Response given: 103

Challenge: May I ask what IC50 at 24 h has been recorded for CCN(CC)Cc1cc(Nc2ccnc3ccc(F)cc23)ccc1O ?
Response given: 159

Challenge: Sample CCN(CC)Cc1cc(Nc2ccnc3cc([N+](=O)[O-])ccc23)ccc1O — what was its IC50 at 24 h?
Response given: 33

Where do the numbers come from? From paper PMC11596630.
